tgt: IGF-1R (human cytoplasmic domain fused with GST) (Homo sapiens, UniProt P08069)
Construct: The human cytoplasmic domain of IGF-1R was cloned by fusion with glutathione S-transferase (GST); made in house; host or cells: SF21 insect cells (baculovirus, pFastBac-GST)
Sequence (P08069 960-1367 limits assumed): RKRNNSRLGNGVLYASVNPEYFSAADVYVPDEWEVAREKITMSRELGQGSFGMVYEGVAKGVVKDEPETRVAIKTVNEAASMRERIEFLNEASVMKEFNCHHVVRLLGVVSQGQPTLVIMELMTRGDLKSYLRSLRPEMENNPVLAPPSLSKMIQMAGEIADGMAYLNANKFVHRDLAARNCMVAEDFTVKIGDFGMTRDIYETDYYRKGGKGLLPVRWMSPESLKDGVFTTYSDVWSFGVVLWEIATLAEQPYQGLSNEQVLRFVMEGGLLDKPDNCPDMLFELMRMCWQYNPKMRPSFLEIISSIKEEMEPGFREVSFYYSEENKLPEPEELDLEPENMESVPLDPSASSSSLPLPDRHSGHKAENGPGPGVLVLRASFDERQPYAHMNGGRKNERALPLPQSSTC
test: Kinase IGF-1R test (Test A): inhibition of autophosphorylation of the enzyme, HTRF
Format: biochemical
test settings: preincubation with enzyme 30 minutes; 120 μM ATP; read-out: Test A 30′ IC50
Entries annotated with measured IC50

Lab note: measured IC50 of COC(=O)Nc1cc(CN2C(=O)N(c3ccc(C(C)(C)C)cc3)C(=O)C2(C)C)ccn1 [Example 31Q] was 10 to 100 nM
